# Tested On: IgE-Tb / FcεRIα-Y131A-AF488 (Homo sapiens, UniProt P01854)
# Sequence (P01854 1-427 limits assumed, stated change not applied): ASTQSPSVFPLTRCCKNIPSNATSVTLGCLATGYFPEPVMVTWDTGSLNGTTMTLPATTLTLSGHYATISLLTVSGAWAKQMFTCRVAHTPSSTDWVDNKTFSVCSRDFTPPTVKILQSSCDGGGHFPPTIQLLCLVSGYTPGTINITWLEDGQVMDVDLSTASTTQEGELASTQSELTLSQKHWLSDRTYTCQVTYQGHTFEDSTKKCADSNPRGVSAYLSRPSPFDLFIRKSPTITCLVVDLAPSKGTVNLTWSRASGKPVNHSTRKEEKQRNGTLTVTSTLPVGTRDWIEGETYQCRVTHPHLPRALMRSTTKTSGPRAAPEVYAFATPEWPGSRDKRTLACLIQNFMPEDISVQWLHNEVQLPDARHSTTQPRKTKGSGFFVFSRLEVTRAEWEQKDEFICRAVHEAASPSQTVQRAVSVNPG
# Measurement Protocol: IgE-Tb / FcεRIα-Y131A-AF488 FRET assay (protocol for examples 1 to 233)
# Condition Notes: examples 1 to 233: 5 nM IgE-Tb, 25 nM FcεRIα-Y131A-AF488, incubated 2 hours at room temperature; read-out: Y131A FRET IC50 range
pIC50: −log10 of the molar value.
Measurement Label: pIC50

Q) Quick check: pIC50 of O=C(NCC1CC1)c1c(NC(=O)C2CC2)sc2c1C[C@@H](n1cnnc1N[C@H]1CCOC1)CC2 ?
A) > 6.00

Q) Record request: pIC50 value, item CC(C)CNc1nncn1C1CCc2sc(NC(=O)C3CC3)c(C(=O)NCC3CC3)c2C1 (stereo in doubt)
A) > 6.00

Q) For Cc1cc(Nc2nncn2[C@H]2CCc3sc(NC(=O)C4CC4)c(C(=O)NCC4CC4)c3C2)n(C2CC2)n1 , what is its reported pIC50?
A) > 6.00

Q) Look at this compound and give its reported pIC50. O=C(NCC1CC1)c1c(NC(=O)C2CC2)sc2c1CC(n1ccnc1Nc1ccccc1)CC2 (centres unmarked)
A) > 6.00

Q) Find the recorded pIC50 belonging to O=C(NCC1CC1)c1c(NC(=O)C2CC2)sc2c1C[C@@H](n1cnnc1Nc1cccnc1)CC2 and report it.
A) > 6.00

Q) Field request: pIC50 | item: CC1=NN(c2cccc(NC(=O)C3CCc4sc(NC(=O)C5CC5)c(C(=O)NCC5CC5)c4C3)c2)C(=O)C1 (centres unmarked)
A) > 6.00

Q) State the recorded pIC50 for this entry: O=C(NCC1CC1)c1c(NC(=O)C2CC2)sc2c1CC(Nc1n[nH]c(-c3cccnc3)n1)CC2 (centres unmarked)
A) > 6.00

Q) Query: pIC50; subject: CCCC[S+]([O-])c1c(NC(=O)C2CC2)sc2c1CCCC2 (centres unmarked)
A) 5.00 to 6.00

Q) Reported pIC50 for Cn1nccc1Nc1nncn1[C@H]1CCc2sc(NC(=O)C3CC3)c(C(=O)NCC3CC3)c2C1 : what is it?
A) > 6.00

Q) Suppose we examine the compound COc1ccc(NC(=O)NC2CCc3sc(NC(=O)C4CC4)c(C(=O)NCC(C)C)c3C2)cc1 (centres unmarked) ; what pIC50 value has been reported?
A) > 6.00

Q) Could you tell me which pIC50 is on file for Cc1cc(Nc2nncn2C2CCc3sc(NC(=O)C4CC4)c(S(=O)(=O)NCC(C)C)c3C2)n(C)n1 (centres unmarked) ?
A) > 6.00

Q) Quick one: pIC50 of O=C1NCc2cc(NC(=O)C3CCc4sc(NC(=O)C5CC5)c(S(=O)(=O)NCC5CC5)c4C3)ccc21 (centres unmarked) ?
A) > 6.00

Q) Dear colleague, I am looking for the recorded pIC50 of the following compound: Cc1cc(Nc2nncn2[C@H]2CCc3sc(NC(=O)C4CC4)c(C(=O)NCC4CC4)c3C2)[nH]n1
A) > 6.00

Q) pIC50 lookup needed for CS(=N)(=O)NC1CCc2sc(NC(=O)C3CC3)c(C(=O)NCC3CC3)c2C1 (centres unmarked) , thanks.
A) 5.00 to 6.00

Q) Look at this compound and give its reported pIC50. CC(C)c1cc(Nc2nncn2[C@H]2CCc3sc(NC(=O)C4CC4)c(C(=O)NCC4CC4)c3C2)n(C)n1
A) > 6.00

Q) // returns reported pIC50 for input CCN/C(=N\[N+](=O)[O-])N[C@@H]1CCc2sc(NC(=O)C3CC3)c(C(=O)NCC3CC3)c2C1
A) 4.30 to 5.00

Q) Please report the recorded pIC50 for O=C(NCC1CC1)c1c(NC(=O)C2CC2)sc2c1C[C@@H](Nc1ncc[nH]1)CC2 .
A) > 6.00
